test.details: Cytotoxicity against human Hep2 cells after 72 hrs by alamar blue assay
Type: cell-based
experimental.parameters: HEp-2 cells
Please use 1.0 for CC50 at 72 h under 40 µM and 0.0 for everything else, ties included.

Regarding `COc1c(N2CC[C@@H](C(C)(C)N)C2)c(F)cc2c(=O)c3c(=O)[nH]sc3n(C3CC3)c12` , kindly confirm whether its CC50 at 72 h is beneath 40 µM.
1.0

Regarding CC[C@H](NC)[C@@H]1CCN(c2c(F)cc3c(=O)c4c(=O)[nH]sc4n(C4CC4)c3c2OC)C1 (mixture of isomers) , kindly confirm whether its CC50 at 72 h is beneath 40 µM.
1.0

Regarding COc1c(N2CC[C@@H]([C@H](C)N)C2)c(F)cc2c(=O)c3c(=O)[nH]sc3n(C3CC3)c12 (mixture of isomers) , kindly confirm whether its CC50 at 72 h is beneath 40 µM.
1.0

Regarding `COc1c(N2CC[C@@H]([C@@H](C)NCCF)C2)c(F)cc2c(=O)c3c(=O)[nH]sc3n(C3CC3)c12` , kindly confirm whether its CC50 at 72 h is beneath 40 µM.
0.0

Regarding COc1c(N2CCC(CNCC(C)C)C2)c(F)cc2c(=O)c3c(=O)[nH]sc3n(C3CC3)c12 (racemic) , kindly confirm whether its CC50 at 72 h is beneath 40 µM.
0.0

Regarding `CNC(C)(C)[C@@H]1CCN(c2c(F)cc3c(=O)c4c(=O)[nH]sc4n(C4CC4)c3c2OC)C1` , kindly confirm whether its CC50 at 72 h is beneath 40 µM.
1.0

Regarding `COc1c(N2CC[C@@H](CN(C)C)C2)c(F)cc2c(=O)c3c(=O)[nH]sc3n(C3CC3)c12` , kindly confirm whether its CC50 at 72 h is beneath 40 µM.
0.0

Regarding `CN[C@@H]1CCN(c2c(F)cc3c(=O)c4c(=O)[nH]sc4n(C4CC4)c3c2OC)C1` , kindly confirm whether its CC50 at 72 h is beneath 40 µM.
0.0

Regarding `CCNC(C)(C)[C@@H]1CCN(c2c(F)cc3c(=O)c4c(=O)[nH]sc4n(C4CC4)c3c2OC)C1` , kindly confirm whether its CC50 at 72 h is beneath 40 µM.
0.0

Regarding `COc1c(N2CC[C@@H](CN)C2)c(F)cc2c(=O)c3c(=O)[nH]sc3n(C3CC3)c12` , kindly confirm whether its CC50 at 72 h is beneath 40 µM.
1.0

Regarding `COc1c(N2CC[C@@H](C(C)(C)N(C)C)C2)c(F)cc2c(=O)c3c(=O)[nH]sc3n(C3CC3)c12` , kindly confirm whether its CC50 at 72 h is beneath 40 µM.
0.0

Regarding COc1c(N2CC[C@@H](C(N)c3ncco3)C2)c(F)cc2c(=O)c3c(=O)[nH]sc3n(C3CC3)c12 (mixture of isomers) , kindly confirm whether its CC50 at 72 h is beneath 40 µM.
1.0

Regarding CNC(C)[C@H]1CCN(c2c(F)cc3c(=O)c4c(=O)[nH]sc4n(C4CC4)c3c2OC)C1 (mixture of isomers) , kindly confirm whether its CC50 at 72 h is beneath 40 µM.
0.0

Regarding `COc1c(N2CC[C@H](C(C)(C)N)C2)c(F)cc2c(=O)c3c(=O)[nH]sc3n(C3CC3)c12` , kindly confirm whether its CC50 at 72 h is beneath 40 µM.
0.0

Regarding COc1c(N2CC[C@@H](C(N)c3nccs3)C2)c(F)cc2c(=O)c3c(=O)[nH]sc3n(C3CC3)c12 (mixture of isomers) , kindly confirm whether its CC50 at 72 h is beneath 40 µM.
1.0

Regarding COc1c(N2CC[C@@H]([C@H](C)NCCF)C2)c(F)cc2c(=O)c3c(=O)[nH]sc3n(C3CC3)c12 (mixture of isomers) , kindly confirm whether its CC50 at 72 h is beneath 40 µM.
0.0

Regarding `COc1c(N2CCNCC2)c(F)cc2c(=O)c3c(=O)[nH]sc3n(C3CC3)c12` , kindly confirm whether its CC50 at 72 h is beneath 40 µM.
1.0

Regarding `COc1c(N2CC[C@@H](CNC(C)C)C2)c(F)cc2c(=O)c3c(=O)[nH]sc3n(C3CC3)c12` , kindly confirm whether its CC50 at 72 h is beneath 40 µM.
1.0

Regarding COc1c(N2CC[C@@H](C(C)NCC3CC3)C2)c(F)cc2c(=O)c3c(=O)[nH]sc3n(C3CC3)c12 (mixture of isomers) , kindly confirm whether its CC50 at 72 h is beneath 40 µM.
0.0

Regarding `COc1c(N2CC[C@@H](C(C)(C)NCC(C)C)C2)c(F)cc2c(=O)c3c(=O)[nH]sc3n(C3CC3)c12` , kindly confirm whether its CC50 at 72 h is beneath 40 µM.
0.0

Regarding `COc1c(N2CC[C@H]([C@@H](C)N)C2)c(F)cc2c(=O)c3c(=O)[nH]sc3n(C3CC3)c12` , kindly confirm whether its CC50 at 72 h is beneath 40 µM.
0.0

Regarding COc1c(N2CC[C@@H](C(C)N)C2)c(F)cc2c(=O)c3c(=O)[nH]sc3n(C3CC3)c12 (mixture of isomers) , kindly confirm whether its CC50 at 72 h is beneath 40 µM.
1.0

Regarding COc1c(N2C[C@@H]3CCCN[C@@H]3C2)c(F)cc2c(=O)c(C(=O)O)cn(C3CC3)c12 [MOXIFLOXACIN] , kindly confirm whether its CC50 at 72 h is beneath 40 µM.
0.0

Regarding `COc1c(N2CC[C@H]([C@H](C)N)C2)c(F)cc2c(=O)c3c(=O)[nH]sc3n(C3CC3)c12` , kindly confirm whether its CC50 at 72 h is beneath 40 µM.
1.0

Regarding CNC(C)[C@@H]1CCN(c2c(F)cc3c(=O)c4c(=O)[nH]sc4n(C4CC4)c3c2OC)C1 (mixture of isomers) , kindly confirm whether its CC50 at 72 h is beneath 40 µM.
0.0

Regarding COc1c(N2CC[C@@H](C(N)c3ccccn3)C2)c(F)cc2c(=O)c3c(=O)[nH]sc3n(C3CC3)c12 (mixture of isomers) , kindly confirm whether its CC50 at 72 h is beneath 40 µM.
1.0

Regarding `COc1c(N2CC[C@H](N)C2)c(F)cc2c(=O)c3c(=O)[nH]sc3n(C3CC3)c12` , kindly confirm whether its CC50 at 72 h is beneath 40 µM.
1.0

Regarding `COc1c(N2CC[C@@H](CNC3CC3)C2)c(F)cc2c(=O)c3c(=O)[nH]sc3n(C3CC3)c12` , kindly confirm whether its CC50 at 72 h is beneath 40 µM.
1.0
